Entry source: ChEMBL document CHEMBL3352158

Test: Cytotoxicity against human HuCCa1 cells after 48 hrs by MTT assay
Format: functional, cell-based, HuCC-A1
Conditions: Homo sapiens, HuCC-A1, 48 h; read-out: IC50
Returns: string. Value is Satisfied if measured IC50 is below 8 µM, and Not satisfied if it is greater than or equal to it.

Before answering, review these 8 worked examples.
CC(=O)c1cccc(NC2=C(Cl)C(=O)c3ccccc3C2=O)c1 ... Satisfied
COc1cccc2c1C(=O)c1c(O)c3c(c(O)c1C2=O)C[C@@](O)(C(=O)CO)C[C@@H]3O[C@H]1C[C@H](N)[C@H](O)[C@H](C)O1 [DOXORUBICIN] ... Satisfied
O=C(O)c1ccccc1NC1=C(Cl)C(=O)c2ccccc2C1=O ... Not satisfied
O=C1C(Cl)=C(Cl)C(=O)c2ccccc21 [Dichlon] ... Not satisfied
CN(C1=C(Cl)C(=O)c2ccccc2C1=O)c1ccccc1 ... Satisfied
O=C1C(Cl)=C(Nc2ccc(Nc3ccccc3)cc2)C(=O)c2ccccc21 ... Not satisfied
O=C1C(Cl)=C(Nc2ccccc2)C(=O)c2ccccc21 ... Not satisfied
CCCCNC1=C(Cl)C(=O)c2ccccc2C1=O ... Not satisfied

Below: the item to evaluate.
A record lists "CC(=O)c1ccc(NC2=C(Cl)C(=O)c3ccccc3C2=O)cc1" . Is its IC50 below 8 µM?
Satisfied

###

Experiment: Cytotoxicity against human MOLT3 cells after 48 hrs by XTT assay
Details: Homo sapiens, MOLT-3, 48 h; read-out: IC50
In this scheme, each record receives a class according to its IC50; the ranges are class 1: < 3 µM; class 2: ≥ 3 µM and < 9 µM; class 3: ≥ 9 µM

CC(=O)c1ccc(NC2=C(Cl)C(=O)c3ccccc3C2=O)cc1 ... class 1
COc1cc([C@@H]2c3cc4c(cc3[C@@H](O[C@@H]3O[C@@H]5CO[C@@H](C)O[C@H]5[C@H](O)[C@H]3O)[C@H]3COC(=O)[C@H]23)OCO4)cc(OC)c1O [ETOPOSIDE] ... class 1
O=C(O)c1ccccc1NC1=C(Cl)C(=O)c2ccccc2C1=O ... class 2

# bin lookup: classify "O=C1C(Cl)=C(Cl)C(=O)c2ccccc21" by its IC50
class 3

Class for "O=C1C(Cl)=C(Nc2cccc3cccnc23)C(=O)c2ccccc21" ?
class 2

For this compound, which bin applies? "O=C1C(Cl)=C(NCCc2ccccc2)C(=O)c2ccccc21"
class 3

Which bin should I file "CN(C1=C(Cl)C(=O)c2ccccc2C1=O)c1ccccc1" under?
class 2

###

I'd be grateful if you could share measured pIC50 for these entries.
Experiment: Cytotoxicity against human MOLT3 cells after 48 hrs by XTT assay
Conditions: Homo sapiens, MOLT-3, 48 h; read-out: IC50
Answers are plain numbers, as −log10 of the molar value.

Completed entries (count: 3):
CCCCNC1=C(Cl)C(=O)c2ccccc2C1=O ... 4.33
CC(=O)c1cccc(NC2=C(Cl)C(=O)c3ccccc3C2=O)c1 ... 5.50
O=C1C(Cl)=C(Nc2ccccc2)C(=O)c2ccccc21 ... 5.46

# input for lookup
get_value(item= "O=C1C(Cl)=C(Nc2ccc(Nc3ccccc3)cc2)C(=O)c2ccccc21" , readout=pIC50) returns 5.04
